- System: human nasopharyngeal carcinoma cell line CNE2
- Assay protocol: in vitro cytotoxicity, MTT
- Type: cell-based
- Condition summary: CNE-2, read-out: in vitro cytotoxicity IC50, CNE2
pIC50: −log10 of the molar value.
Measured attribute: pIC50

Noted for CCC1CCCCCCCCC2=N/C(=C\c3[nH]c(-c4ccc[nH]4)cc3OC)C1=C2 (stereo not shown) : its pIC50 reads < 4.30

====

- Assay protocol: in vitro cytotoxicity, MTT
- Assay type: cell-based
- Condition summary: human; normal hepatic cell line HL7702, MTT, n = 3, mean ± SD
Measured attribute: IC50

The compound listed as CCC1CCCCCCCCC2=N/C(=C\c3[nH]c(-c4ccc[nH]4)cc3OC)C1=C2 (stereo not shown) [Compound 5, metacycloprodigiosin] shows IC50 equal to > 50 µM
